- assayConditions: buffer; pH 7.4; 200.0 µM
quantityMeasured: solubility kinetic (µg/mL)
Field format: number, assumed µg/mL, no unit text.

Which solubility kinetic value belongs to NC(=O)c1ccc(NC(=O)CCNC(=O)c2ccco2)cc1 ?
41.2

Further cases:
Which solubility kinetic value belongs to COc1ccc(/C(C)=N\O)cc1OC ?
16.9

Now give it for Cc1ccccc1C1NC(=S)NC2=C1C(=O)CC(C)(C)C2 (centres undefined) too.
39.3

Now give it for CCC(=O)N1CCN=C1SCc1c(F)cccc1Cl too.
12.6

Now give it for COc1ccc(CNC(=O)c2cccc(NC(=O)CC3SC(N4CCCCC4)=NC3=O)c2)cc1 (centres undefined) too.
7.6

Now give it for Cc1ccc(C(=O)COc2ncnc3cc(Cl)ccc23)cc1 too.
0.4

Now give it for CCOC(=O)Nc1cccnc1Sc1ccc(Cl)cc1 too.
35.1

Now give it for Cc1cc(C(=O)Nc2cccc(NC(=O)c3ccco3)c2)ccc1[N+](=O)[O-] too.
0.5

Now give it for Cc1cccc(NC(=O)COC(=O)[C@@H]2CCCN2C(=O)c2cccs2)c1 too.
2.8

Now give it for O=S(=O)(c1ccccc1C(F)(F)F)N1CCN(c2ncnc3sccc23)CC1 too.
4.6

Now give it for COC(=O)C1CN(C(=O)COc2ccc(C)cc2)c2ccccc2O1 (centres undefined) too.
49.1

Now give it for COc1ccccc1NC(=O)CN1CCSc2ccccc21 too.
3.1
